- protocol_summary: Stability of analytes in rat plasma QC samples (autosampler, room temperature, freeze/thaw, -80°C)
- Type: in vitro ADME
- experimental_context: n = 6, low level (7.2 ng/mL isovanillin, periplocin; 1.44 ng/mL others)
Listed here: items and their measured -80°C for 1 month stability, Accuracy.

compound | unit_symbol | -80°C for 1 month stability, Accuracy
COC1CC(OC2CCC3(C)C4CCC5(C)C(C6=CC(=O)OC6)CCC5(O)C4CCC3(O)C2)OC(C)C1OC1OC(CO)C(O)C(O)C1O (stereo not shown) [periplocin] | % | 115
CO[C@H]1C[C@H](O[C@H]2CC[C@]3(C)[C@H]4CC[C@]5(C)[C@@H](C6=CC(=O)OC6)CC[C@]5(O)[C@@H]4CC[C@]3(O)C2)O[C@H](C)[C@H]1O [periplocymarin] | % | 106
C[C@]12CC[C@H](O)C[C@@]1(O)CC[C@@H]1[C@@H]2CC[C@]2(C)[C@@H](C3=CC(=O)OC3)CC[C@]12O [periplogenin] | % | 109
COc1ccc(C=O)cc1O [isovanillin] | % | 109

Numbers sourced from paper PMC6393897.
